# system: D(2) dopamine receptor (Homo sapiens, UniProt P14416)
# Sequence (P14416 whole entry): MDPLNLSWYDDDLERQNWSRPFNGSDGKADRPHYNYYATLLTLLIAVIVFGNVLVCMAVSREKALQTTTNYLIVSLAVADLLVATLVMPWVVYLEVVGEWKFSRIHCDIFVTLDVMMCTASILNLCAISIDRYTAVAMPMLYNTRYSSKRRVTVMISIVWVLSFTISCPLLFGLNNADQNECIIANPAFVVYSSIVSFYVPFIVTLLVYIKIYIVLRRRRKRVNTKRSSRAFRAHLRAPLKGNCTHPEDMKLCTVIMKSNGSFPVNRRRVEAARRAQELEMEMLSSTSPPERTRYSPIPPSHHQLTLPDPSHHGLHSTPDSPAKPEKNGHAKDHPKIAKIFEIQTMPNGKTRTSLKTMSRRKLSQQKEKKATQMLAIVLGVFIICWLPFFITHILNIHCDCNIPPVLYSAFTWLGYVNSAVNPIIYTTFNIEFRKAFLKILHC
# assay.name: Antagonist activity at D2 receptor (unknown origin) expressed in Flp-In TREx 293 cells coexpressing chimeric Gqi5 protein assessed as calcium accumulation by Fluo-8AM dye based fluorescence analysis
# Assay type: functional, cell-based
attribute.measured: AC50 (nM)
One number for each entry, in nM.

Answered examples (3):
| compound | AC50, nM |
| --- | --- |
| CCN1C(=O)c2ccccc2[S@+]([O-])c2ccc(C(=O)NCc3ccc(C#N)cc3)cc21 | 112 |
| CN1C(=O)c2ccccc2[S@+]([O-])c2ccc(C(=O)NCc3ccc(Br)cc3)cc21 | 89 |
| CCN1C(=O)c2ccccc2[S+]([O-])c2ccc(C(=O)NCCc3ccc(OC)cc3)cc21 (racemic) | 353 |

Below: the item to evaluate.
AC50 measured on CCCN1C(=O)c2ccccc2[S+]([O-])c2ccc(C(=O)NCc3ccc(OC)cc3)cc21 (racemic) = 705
